# testDescription: Protein binding in human plasma
# Type: ADME, cell-free
# cond: read-out: PPB (converted)
measuredParameter: fraction unbound
// return just the number, without any unit appended

-- ask I'd like to know its fraction unbound. The molecule in question is `NS(=O)(=O)CC(=O)NCCSc1nonc1/C(=N/O)Nc1cccc(Cl)c1`
-- reply 0.046

---

As shown below, each of these compounds has a reported half-life value.
# testDescription: Half life in human liver microsomes
# Format: ADME, Microsome

Here's what some known entries look like.
* N#CCC(=O)NCCSc1nonc1/C(=N/O)Nc1ccc(F)c(C(F)F)c1 | 2.77 h
* O=C(NCCSc1nonc1/C(=N/O)Nc1ccc(F)c(C(F)F)c1)C1CS(=O)(=O)C1 | 1.28 h
* CC(C)(O)CC(=O)NCCSc1nonc1/C(=N/O)Nc1ccc(F)c(C(F)F)c1 | 0.937 h
* NS(=O)(=O)CC(=O)NCCSc1nonc1/C(=N/O)Nc1cccc(C(F)(F)F)c1 | 1.95 h
* C[C@@H](CSc1nonc1/C(=N/O)Nc1ccc(F)c(Br)c1)NC(=O)CS(N)(=O)=O | 1.57 h

-- ask Value lookup for half-life; key = `NS(=O)(=O)CC(=O)NCCSc1nonc1/C(=N/O)Nc1ccc(F)c(C(F)F)c1`
-- reply 2.77 h

-- ask Record: `NS(=O)(=O)NCC(=O)NCCSc1nonc1/C(=N/O)Nc1ccc(F)c(C(F)F)c1`
-- reply > 3 h

-- ask Next: `NS(=O)(=O)CC(=O)NCCSc1nonc1/C(=N/O)Nc1cccc(Br)c1`
-- reply > 3 h

-- ask Let us now turn to `N#Cc1cccc(N/C(=N\O)c2nonc2SCCNC(=O)CS(N)(=O)=O)c1`
-- reply > 3 h

-- ask CC1(C(=O)NCCSc2nonc2/C(=N/O)Nc2ccc(F)c(C(F)F)c2)CCN1 (stereo not given) ?
-- reply 1.97 h

---

Below: a set of entries, each annotated with reported half-life at 1 µM.
# measuredTarget: UGT1A9 (Homo sapiens)
# Sequence (O60656 whole entry): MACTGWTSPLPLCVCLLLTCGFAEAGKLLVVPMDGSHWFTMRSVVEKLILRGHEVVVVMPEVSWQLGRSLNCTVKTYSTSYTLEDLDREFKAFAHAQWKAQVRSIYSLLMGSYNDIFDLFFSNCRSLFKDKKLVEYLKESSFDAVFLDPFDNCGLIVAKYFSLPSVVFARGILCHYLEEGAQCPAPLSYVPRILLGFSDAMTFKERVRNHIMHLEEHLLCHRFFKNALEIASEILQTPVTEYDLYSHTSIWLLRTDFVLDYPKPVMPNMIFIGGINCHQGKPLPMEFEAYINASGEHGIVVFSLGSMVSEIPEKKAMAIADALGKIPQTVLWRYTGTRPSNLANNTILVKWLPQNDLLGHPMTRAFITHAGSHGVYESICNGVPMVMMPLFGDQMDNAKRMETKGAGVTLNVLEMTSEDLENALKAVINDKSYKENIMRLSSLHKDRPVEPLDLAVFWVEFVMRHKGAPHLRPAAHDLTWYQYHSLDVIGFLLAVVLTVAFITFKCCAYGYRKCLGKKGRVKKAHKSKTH
# testDescription: Stability assessed as recombinant UGT1A9 (unknown origin) mediated compound glucuronidation by measuring half-life at 1 uM incubated in water bath by shaking at 37 degree C measured upto 60 mins in presence of UDPGA by LC-MS/MS analysis
# Assay type: ADME

- N#Cc1cc(N/C(=N\O)c2nonc2SCCNC(=O)CS(N)(=O)=O)ccc1F: > 3 h
- CC(C)(O)CC(=O)NCCSc1nonc1/C(=N/O)Nc1ccc(F)c(C(F)F)c1: > 3 h
- O=C(NCCSc1nonc1/C(=N/O)Nc1ccc(F)c(C(F)F)c1)C1CS(=O)(=O)C1: > 3 h
- CC1(C(=O)NCCSc2nonc2/C(=N/O)Nc2ccc(F)c(C(F)F)c2)CCN1 (centres undefined): > 3 h

-- ask Entry `C[C@@H](CSc1nonc1/C(=N/O)Nc1ccc(F)c(Br)c1)NC(=O)CS(N)(=O)=O` has what half-life at 1 µM?
-- reply > 3 h

-- ask Continue with `NS(=O)(=O)CC(=O)NCCSc1nonc1/C(=N/O)Nc1ccc(F)c(C(F)F)c1`
-- reply > 3 h

-- ask Now consider `NS(=O)(=O)CC(=O)NCCSc1nonc1/C(=N/O)Nc1cccc(C(F)F)c1` .
-- reply > 3 h

-- ask # repeat for `N#Cc1cccc(N/C(=N\O)c2nonc2SCCNC(=O)CS(N)(=O)=O)c1`
-- reply > 3 h

-- ask Same question, `NS(=O)(=O)NCC(=O)NCCSc1nonc1/C(=N/O)Nc1ccc(F)c(C(F)F)c1` this time
-- reply > 3 h

---

# measuredTarget: Indoleamine 2,3-dioxygenase 1 (Homo sapiens)
# Sequence (P14902 whole entry): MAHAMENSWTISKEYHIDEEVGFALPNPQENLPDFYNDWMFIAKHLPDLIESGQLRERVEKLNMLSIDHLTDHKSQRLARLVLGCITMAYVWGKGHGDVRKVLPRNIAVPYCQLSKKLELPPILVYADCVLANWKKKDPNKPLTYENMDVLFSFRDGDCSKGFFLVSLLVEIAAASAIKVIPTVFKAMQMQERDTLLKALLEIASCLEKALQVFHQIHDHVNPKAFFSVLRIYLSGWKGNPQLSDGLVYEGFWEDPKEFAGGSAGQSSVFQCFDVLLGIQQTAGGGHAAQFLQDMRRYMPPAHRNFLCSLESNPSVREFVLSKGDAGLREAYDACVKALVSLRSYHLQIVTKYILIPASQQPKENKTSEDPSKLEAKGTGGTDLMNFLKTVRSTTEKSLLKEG
# testDescription: Inhibition of IDO1 in interferon-gamma-induced human SKOV3 cells assessed as N-formylkynurenine formation using L-tryptophan as substrate measured after 24 hrs by fluorescence assay
Decision: IC50 beneath 10 nM gives YES; IC50 meeting or exceeding 10 nM gives NO.

Some solved entries appear below for comparison.
• NS(=O)(=O)CC(=O)NCCSc1nonc1/C(=N/O)Nc1cccc(Br)c1 = YES
• CC(C)(O)CC(=O)NCCSc1nonc1/C(=N/O)Nc1ccc(F)c(C(F)F)c1 = YES
• CS(=O)(=O)CCC(=O)NCCSc1nonc1/C(=N/O)Nc1ccc(F)c(Br)c1 = YES
• NS(=O)(=O)CC(=O)NCCSc1nonc1/C(=N/O)Nc1ccc(F)c(C(F)(F)F)c1 = NO
• NS(=O)(=O)CC(=O)NCCSc1nonc1/C(=N/O)Nc1cccc(C(F)(F)F)c1 = NO
• NS(=O)(=O)NCCOc1nonc1/C(=N/O)Nc1ccc(F)c(Br)c1 = NO
• NS(=O)(=O)CC(=O)NCCSc1nonc1/C(=N/O)Nc1ccc(F)c(Br)c1 = NO
• C[C@@H](CSc1nonc1/C(=N/O)Nc1ccc(F)c(Br)c1)NC(=O)CS(N)(=O)=O = NO

We now examine a further compound.
-- ask In plain terms, does `C[C@H](CSc1nonc1/C(=N/O)Nc1ccc(F)c(Br)c1)NC(=O)CS(N)(=O)=O` come in under 10 nM for IC50?
-- reply NO
